Reported values of %Inh for individual entries
# Test system: MKNK2
# settings: concentration: 1 μM, replicates: in singlicate; n = 1;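 further: KINOMEscan kinase panel screen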
Dear colleague, please send the value followed by its unit.

Example cases with answers are listed next.
molecule="CNc1nccc(-c2c(-c3ccc(F)cc3)ncn2C2CCN(C)CC2)n1 [SB-222903]" observation_type=%Inh recorded_measurement=0%
molecule="CC(C)(C)OC(=O)NC1CCCN(c2cc(-c3ccc4c(N)n[nH]c4c3)nc(N)n2)C1 (stereo not shown) [GSK2286096]" observation_type=%Inh recorded_measurement=10%
molecule="FC(F)(F)c1ccc(-c2nn3ncccc3c2-c2ccnc(Nc3cccc(C(F)(F)F)c3)n2)cc1 [GW828205]" observation_type=%Inh recorded_measurement=0%

(Q) Which %Inh is reported for this molecule? COc1ccc(-c2oc3ncnc(N)c3c2-c2ccc(OC)cc2)cc1 [SB-589132]
(A) 41%

###

# System: JAK1(JH1domain-catalytic)
# settings: concentration: 1 μM, replicates: in singlicate; n = 1
%Inh below 5% gives f; %Inh at or above it gives t.

smi=O=C(NCCCN1CCCC1=O)c1cnc(NCc2cc(Cl)ccc2Cl)nc1NC1CCNCC1 category=f
smi=Nc1nc(-c2ccc3c(N)n[nH]c3c2)cc(N2CCCCC2)n1 category=f
smi=COc1cc2c(Nc3cccc(NC(=O)c4ccccc4)c3)ncnc2cc1OCCCN1CCOCC1 category=f

(Q) Quick check, %Inh >= 5%? O=C(Nc1n[nH]c2nc(-c3ccco3)c(Br)cc12)c1ccc(CN2CCCC2)cc1.O=C(O)[C@H](O)[C@@H](O)C(=O)O
(A) f

(Q) Another: COC(=O)c1cccc(NC(=O)NCCNc2ccnc(Nc3ccc(F)cc3)n2)c1
(A) t

(Q) Please answer likewise for Oc1ccc2ncnc(Nc3ccc(OCc4ccccc4)cc3)c2c1
(A) t

(Q) Also check CCC(CC)(CC)n1cnc2c(N)ncnc21
(A) t

(Q) What would you report for CS(=O)(=O)CCNCc1nc(-c2ccc3ncnc(Nc4ccc(OCc5cccc(F)c5)c(Cl)c4)c3c2)cs1.Cl ?
(A) t

###

Consider the following molecules and their measured %Inh readings.
# Test system: OSR1
# Construct: gene OXSR1
# settings: concentration: 1 μM, replicates: in singlicate; n = 1
Entry format: amount then unit.

Please review the entries below; each comes with its answer.
smi=CCc1nc(-c2cccc(N(C)S(=O)(=O)c3ccccc3)c2)c(-c2ccnc(Nc3ccc(N4CCN(C(C)=O)CC4)nc3)n2)s1 recorded_measurement=3%
smi=CN1c2ccc(-c3ccc(C(=O)NCCO)cc3)cc2-c2[nH]ncc2S1(=O)=O recorded_measurement=0%
smi=CC(C)N1CCC(n2cnc(-c3ccc(F)cc3)c2-c2ccnc(N)n2)CC1 recorded_measurement=0%

Please look at the following molecule next.
(Q) I have this molecule here, COc1ccc(NC(=O)Nc2ccc(C)c(-c3ccc(C(=O)Nc4ccncc4)cc3)c2)cc1 , and I need its recorded %Inh.
(A) 0%

###

// %Inh lookup, one value per entry
# System: IRAK3
# settings: concentration: 1 μM, replicates: in singlicate; n = 1
Report the value in % with no unit label.

molecule="CN1CCC(n2cnc(-c3ccc(F)cc3)c2-c2ccnc(NC3CCNCC3)n2)CC1 [SB-229482]" unit_string=% recorded_measurement=0
molecule="Fc1ccc(Nc2nccc(-c3c(-c4ccc(Cl)cc4)nn4ncccc34)n2)cc1F [GW829058]" unit_string=% recorded_measurement=7
molecule="Cl.c1ccc(Cn2ncc3cc(Nc4ncnc5ccccc45)ccc32)cc1 [GW273749]" unit_string=% recorded_measurement=0

(Q) # input molecule: CCn1c(-c2ccncc2)nc2cnccc21 [SB-735216] ; wanted: its %Inh
(A) 0

These data points were gathered from paper PMC5540273.
